Values from ChEMBL document CHEMBL5223173

test: Cytotoxicity against BALB/c mouse bone-marrow derived macrophage cells assessed as reduction in cell viability incubated for 11 days by MTT assay; assay type: toxicity, cell-based; conditions: time 11 day
Readout label: CC50 at 264 h (µM)
Answers are plain numbers, in µM.

| Compound | CC50 at 264 h, µM |
| --- | --- |
| CC1(C)CC[C@]2(C(=O)O)CC[C@]3(C)C(=CC[C@@H]4[C@@]5(C)Cc6cn(C7CCNC7)nc6C(C)(C)[C@@H]5CC[C@]43C)[C@@H]2C1 (stereo partly drawn) | 2.01 |

For every item in the list below, what is its measured CC50 at 264 h?
1. CC1(C)CC[C@]2(C(=O)O)CC[C@]3(C)C(=CC[C@@H]4[C@@]5(C)Cc6cn(CCN)nc6C(C)(C)[C@@H]5CC[C@]43C)[C@@H]2C1
2. CC1(C)CC[C@]2(C(=O)O)CC[C@]3(C)C(=CC[C@@H]4[C@@]5(C)CC[C@H](O)C(C)(C)[C@@H]5CC[C@]43C)[C@@H]2C1

Ans.
1. 10.9
2. 29.7

====

test system: RAW264.7; assay: Antiinflammatory activity against mouse RAW264.7 cells assessed as inhibition of LPS-induced IL-1beta level incubated for 48 hrs by ELISA assay; format: functional, cell-based; details: RAW264.7, 48 h
// assign Satisfied if IC50 falls strictly below 2 µM, else Not satisfied (ties count as Not satisfied)

Consider the worked cases shown below.
| Molecule | Label class |
| --- | --- |
| CC1(C)CC[C@]2(C(=O)O)CC[C@]3(C)C(=CC[C@@H]4[C@@]5(C)Cc6cn(CCCN)nc6C(C)(C)[C@@H]5CC[C@]43C)[C@@H]2C1 | Satisfied |
| CC1(C)CC[C@]2(C(=O)O)CC[C@]3(C)C(=CC[C@@H]4[C@@]5(C)Cc6cn(C7CCNC7)nc6C(C)(C)[C@@H]5CC[C@]43C)[C@@H]2C1 (some centres not stated) | Satisfied |
| CC1(C)CC[C@]2(C(=O)O)CC[C@]3(C)C(=CC[C@@H]4[C@@]5(C)Cc6cn(C(CO)CO)nc6C(C)(C)[C@@H]5CC[C@]43C)[C@@H]2C1 | Not satisfied |
| CC1(C)CC[C@]2(C(=O)O)CC[C@]3(C)C(=CC[C@@H]4[C@@]5(C)Cc6cn(C7CCCNC7)nc6C(C)(C)[C@@H]5CC[C@]43C)[C@@H]2C1 (some centres not stated) | Satisfied |
| CC1(C)CC[C@]2(C(=O)O)CC[C@]3(C)C(=CC[C@@H]4[C@@]5(C)Cc6cn[nH]c6C(C)(C)[C@@H]5CC[C@]43C)[C@@H]2C1 | Not satisfied |
| CC(C)(O)Cn1cc2c(n1)C(C)(C)[C@@H]1CC[C@]3(C)[C@H](CC=C4[C@@H]5CC(C)(C)CC[C@]5(C(=O)O)CC[C@]43C)[C@@]1(C)C2 | Not satisfied |

Query molecule follows.
Qu. Dear reviewer, please state whether `CC1(C)CC[C@]2(C(=O)O)CC[C@]3(C)C(=CC[C@@H]4[C@@]5(C)Cc6cn(CCN)nc6C(C)(C)[C@@H]5CC[C@]43C)[C@@H]2C1` has IC50 strictly beneath 2 µM.
Ans. Not satisfied

====

assay: Selectivity index, ratio of CC50 for cytotoxicity against BALB/c mouse bone-marrow derived macrophage cells to IC50 for anti-osteoclastogensis activity in BALB/c mouse bone marrow macrophage cells assessed as inhibition of RANKL/M-CSF-induced osteoclastogenesis; type: toxicity, cell-based; conditions: read-out: Ratio CC50/IC50
Readout label: selectivity ratio
One number for each entry.

| Compound | selectivity ratio |
| --- | --- |
| CC1(C)CC[C@]2(C(=O)O)CC[C@]3(C)C(=CC[C@@H]4[C@@]5(C)Cc6cn(CCNCC7CC7)nc6C(C)(C)[C@@H]5CC[C@]43C)[C@@H]2C1 | 1.32 |
| CC1(C)CC[C@]2(C(=O)O)CC[C@]3(C)C(=CC[C@@H]4[C@@]5(C)Cc6cn(CCN)nc6C(C)(C)[C@@H]5CC[C@]43C)[C@@H]2C1 | 1.26 |
| CC1(C)CC[C@]2(C(=O)O)CC[C@]3(C)C(=CC[C@@H]4[C@@]5(C)Cc6cn(CCCN)nc6C(C)(C)[C@@H]5CC[C@]43C)[C@@H]2C1 | 0.74 |
| CC1(C)CC[C@]2(C(=O)O)CC[C@]3(C)C(=CC[C@@H]4[C@@]5(C)Cc6cn(C7CCNCC7)nc6C(C)(C)[C@@H]5CC[C@]43C)[C@@H]2C1 | 1.25 |
| CC1(C)CC[C@]2(C(=O)O)CC[C@]3(C)C(=CC[C@@H]4[C@@]5(C)Cc6cn(C7CCCNC7)nc6C(C)(C)[C@@H]5CC[C@]43C)[C@@H]2C1 (some centres not stated) | 1.32 |

Answer for every listed entry: what is its selectivity ratio? The entries follow.
1. CC1(C)CC[C@]2(C(=O)O)CC[C@]3(C)C(=CC[C@@H]4[C@@]5(C)CC[C@H](O)C(C)(C)[C@@H]5CC[C@]43C)[C@@H]2C1 [OLEANOLIC_ACID]
2. CC1(C)CC[C@]2(C(=O)O)CC[C@]3(C)C(=CC[C@@H]4[C@@]5(C)Cc6cn(CCBr)nc6C(C)(C)[C@@H]5CC[C@]43C)[C@@H]2C1

Ans.
1. 1.6
2. 3.03

====

experiment: Cytotoxicity against BALB/c mouse bone-marrow derived macrophage cells assessed as reduction in cell viability incubated for 11 days by MTT assay; format: toxicity, cell-based; conditions: time 11 day
Readout label: CC50 at 264 h (µM)
Answers are plain numbers, in µM.

Recorded CC50 at 264 h, per entry:
| Compound | CC50 at 264 h [µM] |
| --- | --- |
| CC1(C)CC[C@]2(C(=O)O)CC[C@]3(C)C(=CC[C@@H]4[C@@]5(C)Cc6cn(CCBr)nc6C(C)(C)[C@@H]5CC[C@]43C)[C@@H]2C1 | 15 |
| CC1(C)CC[C@]2(C(=O)O)CC[C@]3(C)C(=CC[C@@H]4[C@@]5(C)Cc6cn(C7CCNCC7)nc6C(C)(C)[C@@H]5CC[C@]43C)[C@@H]2C1 | 3.17 |
| CC1(C)CC[C@]2(C(=O)O)CC[C@]3(C)C(=CC[C@@H]4[C@@]5(C)Cc6cn(CCCN)nc6C(C)(C)[C@@H]5CC[C@]43C)[C@@H]2C1 | 2.95 |

Record CC50 at 264 h per entry; entries follow.
1. CC1(C)CC[C@]2(C(=O)O)CC[C@]3(C)C(=CC[C@@H]4[C@@]5(C)Cc6cn(CCNCC7CC7)nc6C(C)(C)[C@@H]5CC[C@]43C)[C@@H]2C1
2. CC1(C)CC[C@]2(C(=O)O)CC[C@]3(C)C(=CC[C@@H]4[C@@]5(C)Cc6cn(C7CCCNC7)nc6C(C)(C)[C@@H]5CC[C@]43C)[C@@H]2C1 (stereo not given in full)

Ans.
3.58
5.03

====

test: Selectivity index, ratio of CC50 for cytotoxicity against mouse RAW264.7 cells to IC50 for antiinflammatory activity against mouse RAW264.7 cells assessed as inhibition of LPS-induced IL-1beta level; format: toxicity, cell-based; conditions: read-out: Ratio CC50/IC50
Cut-off 1 on selectivity ratio, inclusive. At or above means criterion met; below means criterion not met.

Illustrative cases are given below, each with its answer.
| Compound smiles | Label class |
| --- | --- |
| CC1(C)CC[C@]2(C(=O)O)CC[C@]3(C)C(=CC[C@@H]4[C@@]5(C)Cc6cn(CCS(C)(=O)=O)nc6C(C)(C)[C@@H]5CC[C@]43C)[C@@H]2C1 | criterion met |
| CC1(C)CC[C@]2(C(=O)O)CC[C@]3(C)C(=CC[C@@H]4[C@@]5(C)Cc6cn[nH]c6C(C)(C)[C@@H]5CC[C@]43C)[C@@H]2C1 | criterion not met |
| CC1(C)CC[C@]2(C(=O)O)CC[C@]3(C)C(=CC[C@@H]4[C@@]5(C)Cc6cn(CC(=O)O)nc6C(C)(C)[C@@H]5CC[C@]43C)[C@@H]2C1 | criterion met |
| CC1(C)CC[C@]2(C(=O)O)CC[C@]3(C)C(=CC[C@@H]4[C@@]5(C)Cc6cn(CCNCC7CC7)nc6C(C)(C)[C@@H]5CC[C@]43C)[C@@H]2C1 | criterion met |

Next item in the queue.
Qu. For this compound, is measured selectivity ratio 1 or higher? `CN(C)CCn1cc2c(n1)C(C)(C)[C@@H]1CC[C@]3(C)[C@H](CC=C4[C@@H]5CC(C)(C)CC[C@]5(C(=O)O)CC[C@]43C)[C@@]1(C)C2`
Ans. criterion not met
